Source of measurements: patent US20140023641A1

Target: T1, macaca GM-CSF (rhesus, Macaca mulatta; cynomolgus, Macaca fascicularis, identical sequence) (Macaca mulatta / Macaca fascicularis, UniProt Q0MUT8 18-144 (Chlorocebus aethiops entry), limits assumed)
T1 chain: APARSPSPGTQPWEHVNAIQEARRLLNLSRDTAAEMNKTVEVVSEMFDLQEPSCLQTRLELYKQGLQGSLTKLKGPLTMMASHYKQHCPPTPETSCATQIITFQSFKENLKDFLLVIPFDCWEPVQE
Experiment: cell-based or functional assay
observedProperty: Fold macaca/human I117 (TF-1 proliferation IC50) (fold)
Record the value in fold, omitting the unit from your answer.

Sample answers from the record:
- binder: "humanized parental anti-GM-CSF 4K21 VH3-07.1AL+VK2-A3.2 hIgG1 K antibody (MSB0010439) (antibody, V domains shown, hIgG1 kappa; also called humanized parental 4K21 hVH hVL; humanized parental 4K21) VH: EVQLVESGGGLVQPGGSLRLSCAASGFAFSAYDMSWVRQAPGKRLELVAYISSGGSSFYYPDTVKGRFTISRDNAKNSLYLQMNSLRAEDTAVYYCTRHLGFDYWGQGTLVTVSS VL: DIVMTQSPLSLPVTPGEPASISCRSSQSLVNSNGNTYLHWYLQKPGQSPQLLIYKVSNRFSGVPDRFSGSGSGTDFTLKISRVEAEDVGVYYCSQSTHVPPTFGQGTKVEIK"
  u: "fold"
  resultNumber: 6.6
- binder: "4K21 hVH S55K-T62S hVL S27eY-N28I-H34S-N53R-H93F (MSB0010629) (antibody, V domains shown, Tested as IgG ('optimized 4K21 IgGs'); the humanized parent is hIgG1 kappa; also called optimized 4K21 antibody with S27eY; 4K21 (4K21 VH S55K-T62S VL S27eY-N28I-H34S-N53R-H93F)) VH: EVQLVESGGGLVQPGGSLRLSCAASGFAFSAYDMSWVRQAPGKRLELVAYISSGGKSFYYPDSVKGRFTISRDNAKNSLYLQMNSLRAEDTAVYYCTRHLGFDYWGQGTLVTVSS VL: DIVMTQSPLSLPVTPGEPASISCRSSQSLVNYIGNTYLSWYLQKPGQSPQLLIYKVSRRFSGVPDRFSGSGSGTDFTLKISRVEAEDVGVYYCSQSTFVPPTFGQGTKVEIK"
  u: "fold"
  resultNumber: 1.5

*Q* Given the entry anti-GM-CSF 4K21 hIgG1 K antibody (MSB0010259), recombinant chimeric 4K21 (antibody, V domains shown, Murine variable domains fused to human constant IgG1 heavy chain and kappa light chain domains; also called parental chimeric 4K21) VH: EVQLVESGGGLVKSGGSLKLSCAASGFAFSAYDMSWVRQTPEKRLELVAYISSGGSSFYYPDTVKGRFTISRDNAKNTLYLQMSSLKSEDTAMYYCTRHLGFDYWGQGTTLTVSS VL: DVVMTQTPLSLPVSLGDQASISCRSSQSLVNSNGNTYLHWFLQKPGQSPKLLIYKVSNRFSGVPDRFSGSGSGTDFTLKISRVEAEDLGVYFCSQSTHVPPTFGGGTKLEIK , report its measured Fold macaca/human I117 (TF-1 proliferation IC50).
*A* 9.3
